# system-name: MERTK (UniProt Q12866)
# Sequence (Q12866 whole entry, looked up): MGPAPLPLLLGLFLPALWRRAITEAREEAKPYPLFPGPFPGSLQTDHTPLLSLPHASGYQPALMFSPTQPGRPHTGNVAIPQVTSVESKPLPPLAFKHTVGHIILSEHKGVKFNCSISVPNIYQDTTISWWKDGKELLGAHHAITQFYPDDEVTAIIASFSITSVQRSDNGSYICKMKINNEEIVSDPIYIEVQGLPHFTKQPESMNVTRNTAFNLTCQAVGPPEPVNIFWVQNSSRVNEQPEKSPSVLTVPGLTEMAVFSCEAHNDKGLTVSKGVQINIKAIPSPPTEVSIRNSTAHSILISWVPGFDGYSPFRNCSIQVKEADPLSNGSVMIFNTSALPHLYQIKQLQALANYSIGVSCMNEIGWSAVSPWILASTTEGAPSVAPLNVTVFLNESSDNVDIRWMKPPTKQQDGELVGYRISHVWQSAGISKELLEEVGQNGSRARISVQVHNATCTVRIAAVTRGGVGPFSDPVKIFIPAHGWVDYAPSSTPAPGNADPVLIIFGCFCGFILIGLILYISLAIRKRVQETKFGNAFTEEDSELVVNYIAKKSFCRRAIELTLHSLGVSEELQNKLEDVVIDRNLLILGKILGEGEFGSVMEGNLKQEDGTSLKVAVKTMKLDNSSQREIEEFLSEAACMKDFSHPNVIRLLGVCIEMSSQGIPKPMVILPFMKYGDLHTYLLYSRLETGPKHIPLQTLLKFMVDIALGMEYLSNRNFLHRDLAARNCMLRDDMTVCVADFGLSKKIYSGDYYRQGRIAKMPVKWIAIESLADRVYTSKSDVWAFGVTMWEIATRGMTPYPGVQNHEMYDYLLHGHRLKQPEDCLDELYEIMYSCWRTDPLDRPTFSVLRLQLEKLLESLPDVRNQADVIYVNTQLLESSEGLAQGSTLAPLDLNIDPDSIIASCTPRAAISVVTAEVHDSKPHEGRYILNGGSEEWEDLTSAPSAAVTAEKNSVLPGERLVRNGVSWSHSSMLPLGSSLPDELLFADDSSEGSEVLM
# assay: phosphorylation enrichment, bacterial display (enrichment ratio); higher = better substrate or ligand; peptides without Tyr show the background;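 also: 11-residue human phosphosite peptides and single-mutation variants displayed on the E. coli surface, counted by deep sequencing, each peptide's frequency after selection divided by its frequency in the unselected input library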;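 also: frequency after pTyr selection over input frequency; kinase dosed for 20-30% of maximal phosphorylation in three min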
Label MET when phosphorylation enrichment is at or above 0.4; anything below gets NOT MET.

>>> label_class("LKALHYMAQTS [SACS_Y3367_V3369A]")
"MET"
>>> label_class("FEGRSYSACTT [MMP9_Y241]")
"MET"
>>> label_class("ASTDFYKRGDF [PDHA1_Y243_YF]")
"NOT MET"
>>> label_class("DSFATYFRRVL [H2BW1_Y84]")
"MET"
>>> label_class("CTTIHYNFMCT [TP53_Y234_N239T_YF]")
"MET"
>>> label_class("APQFTYTQGGQ [FLNA_Y1763_A1764T_YF]")
"NOT MET"
>>> label_class("AISEGYKDFRA [CDA_Y79_V75I]")
"NOT MET"
